System: HCV 1b genotype
Test: HCV Replicon assay
Type: cell-based
Details: Hepatitis C virus; HCV 1b genotype replicon; read-out: 1b EC50 (in nM or range)
TEST_READOUT: EC50 (nM)

compound="COC(=O)N[C@H](C(=O)N1CCC[C@H]1c1nc(C2=CCC(c3ccc(-c4c[nH]c([C@@H]5CCCN5C(=O)[C@@H](NC(=O)OC)C(C)C)n4)cc3)CC2)c[nH]1)C(C)C (mixture of isomers)" test_readout=EC50 measurement_unit=nM experimental_value=0.011
compound="COC[C@H](NC(=O)OC)C(=O)N1CCC[C@H]1c1nc(C2CCC(C3CCC(c4c[nH]c([C@@H]5CCCN5C(=O)[C@H](COC)NC(=O)OC)n4)CC3)CC2)c[nH]1 (stereo partly shown)" test_readout=EC50 measurement_unit=nM experimental_value=17.1
compound=COC(=O)N[C@H](C(=O)N1CCC[C@H]1c1nc(-c2ccc(C34CCC(c5c[nH]c([C@@H]6CCCN6C(=O)[C@@H](NC(=O)OC)C(C)C)n5)(CC3)CC4)cc2)c[nH]1)C(C)C test_readout=EC50 measurement_unit=nM experimental_value=0.009
compound="COC(=O)N[C@H](C(=O)N1CCC[C@H]1c1nc(C2CCC(C3CCC(c4c[nH]c([C@@H]5CCCN5C(=O)[C@@H](NC(=O)OC)[C@@H](C)OC)n4)CC3)CC2)c[nH]1)[C@@H](C)OC (stereo partly shown)" test_readout=EC50 measurement_unit=nM experimental_value=2.4
